- procedure text: Safety index, ratio of arrhythmogenic concentration to minimum positive inotropic effective concentration causing myocardial contraction in guinea pig left atrial muscles
- Assay type: toxicity, tissue-based, Cavia porcellus, Muscle tissue
- experimental setup: isolated left atrial muscles
Reported selectivity ratio values are given for each entry in this list.
readout: selectivity ratio

{"molecule": "C[C@@H]1O[C@H](O[C@H]2CC[C@]3(C(=O)O)[C@H]4C[C@@H](O)[C@]5(C)[C@@H](C6=CC(=O)OC6)CC[C@]5(O)[C@@H]4CC[C@]3(O)C2)[C@H](O)[C@H](O)[C@H]1O [ANTIAROSIDE G]", "readout": "selectivity ratio", "measurement": 13}
{"molecule": "C[C@@H]1O[C@H](O[C@H]2CC[C@@H]3[C@H]4CC[C@]5(C)[C@@H](C6=CC(=O)OC6)CC[C@]5(O)[C@@H]4CC[C@]3(O)C2)[C@H](O)[C@H](O)[C@H]1O [ANTIAROSIDE I]", "readout": "selectivity ratio", "measurement": 6.7}
{"molecule": "C[C@@H]1O[C@H](O[C@H]2CC[C@@]3(C=O)[C@H](CC[C@@H]4[C@@H]3CC[C@]3(C)[C@@H](C5=CC(=O)OC5)CC[C@]43O)C2)[C@H](O)[C@H](O)[C@H]1O [MALAYOSIDE]", "readout": "selectivity ratio", "measurement": 20}
{"molecule": "C[C@H]1O[C@H](O[C@H]2CC[C@]3(C=O)[C@H]4CC[C@]5(C)[C@@H](C6=CC(=O)OC6)CC[C@]5(O)[C@@H]4CC[C@]3(O)C2)[C@H](O)[C@H](O[C@@H]2O[C@H](CO)[C@@H](O)[C@H](O)[C@H]2O)[C@@H]1O [GLUCOSTROPHALLOSIDE]", "readout": "selectivity ratio", "measurement": 10}

* * *

selectivity ratio values for the compounds below.
- procedure text: Safety index, ratio of arrhythmogenic concentration to minimum positive inotropic effective concentration causing myocardial contraction in guinea pig right ventricular muscles
- Assay type: toxicity, tissue-based, Cavia porcellus, Muscle tissue
- experimental setup: isolated right ventricular muscles
readout: selectivity ratio

{"compound": "C[C@H]1O[C@H](O[C@H]2CC[C@]3(C(=O)O)[C@H]4C[C@@H](O)[C@]5(C)[C@@H](C6=CC(=O)OC6)CC[C@]5(O)[C@@H]4CC[C@]3(O)C2)[C@H](O)[C@H](O)[C@H]1O [ANTIAROSIDE H]", "readout": "selectivity ratio", "measurement": 9.7}
{"compound": "C[C@]12CC[C@H]3[C@@H](CC[C@]4(O)C[C@@H](O)CC[C@]34CO)[C@@]1(O)CC[C@@H]2C1=CC(=O)OC1 [STROPHANTHIDOL]", "readout": "selectivity ratio", "measurement": 65}
{"compound": "C[C@@H]1O[C@H](O[C@H]2CC[C@]3(C=O)[C@H]4C[C@@H](O)[C@]5(C)[C@@H](C6=CC(=O)OC6)CC[C@]5(O)[C@@H]4CC[C@]3(O)C2)[C@H](O)[C@H](O)[C@H]1O", "readout": "selectivity ratio", "measurement": 15}
{"compound": "CO[C@H]1[C@@H](O[C@H]2CC[C@]3(C=O)[C@H]4CC[C@]5(C)[C@@H](C6=CC(=O)OC6)CC[C@]5(O)[C@@H]4CC[C@]3(O)C2)O[C@H](C)[C@@H](O)[C@H]1O (stereo in doubt; 18) [STROPHATHOJAVOSIDE]", "readout": "selectivity ratio", "measurement": 5}
{"compound": "C[C@@H]1O[C@H](O[C@H]2CC[C@]3(C(=O)O)[C@H]4C[C@@H](O)[C@]5(C)[C@@H](C6=CC(=O)OC6)CC[C@]5(O)[C@@H]4CC[C@]3(O)C2)[C@H](O)[C@H](O)[C@H]1O [ANTIAROSIDE G]", "readout": "selectivity ratio", "measurement": 20.7}
{"compound": "C[C@@H]1O[C@@H](O[C@H]2CC[C@]3(C=O)[C@H]4CC[C@]5(C)[C@@H](C6=CC(=O)OC6)CC[C@]5(O)[C@@H]4CC[C@]3(O)C2)[C@H](O)[C@H](O)[C@H]1O [CONVALLATOXIN]", "readout": "selectivity ratio", "measurement": 8}
{"compound": "C[C@H]1O[C@H](O[C@H]2CC[C@]3(C=O)[C@H]4C[C@@H](O)[C@]5(C)[C@@H](C6=CC(=O)OC6)CC[C@]5(O)[C@@H]4CC[C@]3(O)C2)[C@H](O)[C@H](O)[C@H]1O", "readout": "selectivity ratio", "measurement": 15}
{"compound": "C[C@H]1O[C@@H](O[C@H]2CC[C@]3(C=O)[C@H]4CC[C@]5(C)[C@@H](C6=CC(=O)OC6)CC[C@]5(O)[C@@H]4CC[C@]3(O)C2)[C@H](O)[C@H](O)[C@H]1O [DESGLUCOCHEIROTOXIN]", "readout": "selectivity ratio", "measurement": 10}
{"compound": "C[C@@H]1O[C@H](O[C@H]2CC[C@@H]3[C@H]4CC[C@]5(C)[C@@H](C6=CC(=O)OC6)CC[C@]5(O)[C@@H]4CC[C@]3(O)C2)[C@H](O)[C@H](O)[C@H]1O [ANTIAROSIDE I]", "readout": "selectivity ratio", "measurement": 10.7}
{"compound": "C[C@H]1O[C@H](O[C@H]2CC[C@]3(C=O)[C@H]4CC[C@]5(C)[C@@H](C6=CC(=O)OC6)CC[C@]5(O)[C@@H]4CC[C@]3(O)C2)[C@H](O)[C@H](O[C@@H]2O[C@H](CO)[C@@H](O)[C@H](O)[C@H]2O)[C@@H]1O [GLUCOSTROPHALLOSIDE]", "readout": "selectivity ratio", "measurement": 10}
{"compound": "C[C@@H]1O[C@H](O[C@@H]2CC[C@]3(C=O)[C@H]4CC[C@]5(C)[C@@H](C6=CC(=O)OC6)CC[C@]5(O)[C@@H]4CC[C@]3(O)C2)[C@H](O)[C@H](O)[C@H]1O [ANTIAROSIDE C]", "readout": "selectivity ratio", "measurement": 9.7}
{"compound": "C[C@@H]1O[C@H](O[C@H]2CC[C@@]3(C(=O)O[C@@H]4O[C@H](CO)[C@@H](O)[C@H](O)[C@H]4O)[C@H](CC[C@@H]4[C@@H]3CC[C@]3(C)[C@@H](C5=CC(=O)OC5)CC[C@]43O)C2)[C@H](O)[C@H](O)[C@H]1O [ANTIAROSIDE F]", "readout": "selectivity ratio", "measurement": 5.8}
{"compound": "C[C@@H]1O[C@@H](O[C@H]2CC[C@@]3(CO)[C@H](CC[C@@H]4[C@@H]3CC[C@]3(C)[C@@H](C5=CC(=O)OC5)CC[C@]43O)C2)[C@H](O)[C@H](O)[C@H]1O[C@@H]1O[C@H](CO)[C@@H](O)[C@H](O)[C@H]1O [ANTIAROSIDE B]", "readout": "selectivity ratio", "measurement": 100}
{"compound": "C[C@@H]1O[C@H](O[C@H]2CC[C@]3(CO)[C@H]4CC[C@]5(C)[C@@H](C6=CC(=O)OC6)CC[C@]5(O)[C@@H]4CC[C@]3(O)C2)[C@H](O)[C@H](O)[C@H]1O [CONVALLATOXOL]", "readout": "selectivity ratio", "measurement": 20}
{"compound": "C[C@@H]1O[C@H](O[C@H]2CC[C@@]3(C(=O)O)[C@H](CC[C@@H]4[C@@H]3CC[C@]3(C)[C@@H](C5=CC(=O)OC5)CC[C@]43O)C2)[C@H](O)[C@H](O)[C@H]1O [ANTIAROSIDE E]", "readout": "selectivity ratio", "measurement": 7.7}
{"compound": "C[C@@H]1O[C@H](O[C@H]2CC[C@]3(C)[C@H]4CC[C@]5(C)[C@@H](C6=CC(=O)OC6)CC[C@]5(O)[C@@H]4CC[C@]3(O)C2)[C@H](O)[C@H](O)[C@H]1O [PERIPLORHAMNOSIDE]", "readout": "selectivity ratio", "measurement": 8.8}
{"compound": "C[C@]12CC[C@H]3[C@@H](CC[C@]4(O)C[C@@H](O)CC[C@]34C=O)[C@@]1(O)CC[C@@H]2C1=CC(=O)OC1 [STROPHANTHIDIN]", "readout": "selectivity ratio", "measurement": 8.7}

* * *

- procedure text: Safety index, ratio of arrhythmogenic concentration to minimum positive inotropic effective concentration causing myocardial contraction in guinea pig left atrial muscles
- Format: toxicity, tissue-based, Cavia porcellus, Muscle tissue
- experimental setup: isolated left atrial muscles

{"compound": "C[C@@H]1O[C@H](O[C@H]2CC[C@]3(C)[C@H]4CC[C@]5(C)[C@@H](C6=CC(=O)OC6)CC[C@]5(O)[C@@H]4CC[C@]3(O)C2)[C@H](O)[C@H](O)[C@H]1O [PERIPLORHAMNOSIDE]", "selectivity ratio": 11}
{"compound": "C[C@H]1O[C@H](O[C@H]2CC[C@]3(C=O)[C@H]4C[C@@H](O)[C@]5(C)[C@@H](C6=CC(=O)OC6)CC[C@]5(O)[C@@H]4CC[C@]3(O)C2)[C@H](O)[C@H](O)[C@H]1O", "selectivity ratio": 10}
{"compound": "C[C@@H]1O[C@H](O[C@H]2CC[C@]3(CO)[C@H]4CC[C@]5(C)[C@@H](C6=CC(=O)OC6)CC[C@]5(O)[C@@H]4CC[C@]3(O)C2)[C@H](O)[C@H](O)[C@H]1O [CONVALLATOXOL]", "selectivity ratio": 5}
{"compound": "C[C@H]1O[C@H](O[C@H]2CC[C@]3(C=O)[C@H]4C[C@@H](O)[C@]5(C)[C@@H](C6=CC(=O)OC6)CC[C@]5(O)[C@@H]4CC[C@]3(O)C2)[C@H](O)[C@H](O)[C@@H]1O [ANTIALLOSIDE]", "selectivity ratio": 80}
